Attribute: Pre-emergence action against SETVI
# System: Setaria viridis
# procedureText: Pre-emergence herbicidal effect against SETVI
# Assay type: in vivo
# conditionParameters: 1280 g/ha, visual score after 3 weeks, 100% = plants have died, 0% = like control plants
Entry rule: numbers only, all in %.

Worked cases, Pre-emergence action against SETVI given:
molecule: CCOC(=O)CSc1nn(-c2cc(F)ccc2F)c(-c2ccc(F)c(F)c2)c1Br
tgt: Setaria viridis
quantityMeasured: Pre-emergence action against SETVI
reading: 100
//
molecule: CCOC(=O)CSc1nn(-c2cc(F)ccc2F)c(-c2ccc(F)cc2)c1Br
tgt: Setaria viridis
quantityMeasured: Pre-emergence action against SETVI
reading: 100
//
molecule: O=C(O)CSc1nn(-c2ccccc2F)c(-c2cncc(F)c2)c1Br
tgt: Setaria viridis
quantityMeasured: Pre-emergence action against SETVI
reading: 100

Let's switch to this molecule now.
Task: Given the entry O=C(O)CSc1nn(-c2ccccc2)c(-c2cncnc2)c1Br , what Pre-emergence action against SETVI was observed with Setaria viridis?
Result: 100

* * *

# Test system: Bassia scoparia
# procedureText: Pre-emergence herbicidal effect against KCHSC
# Assay type: in vivo
# conditionParameters: 1280 g/ha, visual score after 3 weeks, 100% = plants have died, 0% = like control plants
Attribute: Pre-emergence action against KCHSC
Entry rule: numbers only, all in %.

Worked cases, Pre-emergence action against KCHSC given:
molecule: CCOC(=O)C[S+]([O-])c1nn(-c2ccccc2F)c(-c2cncc(F)c2)c1Br (stereo not shown) [II-011]
tgt: Bassia scoparia
Pre-emergence action against KCHSC (%): 100
//
molecule: COC(=O)CN(C)C(=O)CSc1nn(-c2ccccc2F)c(-c2ccc(F)c(F)c2)c1Cl [VII-002]
tgt: Bassia scoparia
Pre-emergence action against KCHSC (%): 90
//
molecule: CCOC(=O)CSc1nn(-c2ccc(F)cc2F)c(-c2ccc(F)cc2)c1Br [Example I-016]
tgt: Bassia scoparia
Pre-emergence action against KCHSC (%): 100

Let's switch to this molecule now.
Task: Fill in: Pre-emergence action against KCHSC of COC(=O)CNC(=O)CSc1nn(-c2ccccc2F)c(-c2cccnc2)c1Br [VII-007] is ___
Result: 90

* * *

# Tested on: Stellaria media
# procedureText: Post-emergence herbicidal effect against STEME
# Type: in vivo
# conditionParameters: 1280 g/ha, visual assessment about 3 weeks after treatment, 100% = plants have died, 0% = like control plants
quantityMeasured: Post-emergence action against STEME
The number alone won't do; follow it with the unit.

Worked cases, Post-emergence action against STEME given:
molecule: CC(Sc1nn(-c2ccccc2F)c(-c2ccc(F)c(F)c2)c1Br)C(=O)O (centres unmarked)
quantityMeasured: Post-emergence action against STEME
reading: 90%
--
molecule: CCOC(=O)CSc1nn(-c2cc(F)ccc2F)c(-c2ccc(F)cc2)c1Br
quantityMeasured: Post-emergence action against STEME
reading: 90%
--
molecule: CCOC(=O)CNC(=O)CSc1nn(-c2ccccc2F)c(-c2ccc(F)c(F)c2)c1Br
quantityMeasured: Post-emergence action against STEME
reading: 90%
--
molecule: CCOC(=O)CSc1nn(-c2ccccc2F)c(-c2cncc(Cl)c2)c1Br
quantityMeasured: Post-emergence action against STEME
reading: 100%
--
molecule: COC(=O)CN(C)C(=O)CSc1nn(-c2ccccc2F)c(-c2ccc(F)c(F)c2)c1Cl
quantityMeasured: Post-emergence action against STEME
reading: 90%

Task: Fill in: Post-emergence action against STEME of CCOC(=O)CSc1nn(-c2ccccc2F)c(-c2ccc(F)c(F)c2)c1C#N is ___
Result: 100%

Task: Can you check CCOC(=O)CSc1nn(-c2cccc(F)c2F)c(-c2ccccc2)c1Br next?
Result: 90%

Task: Can you check CCOC(=O)C[S+]([O-])c1nn(-c2cccc(F)c2F)c(-c2ccccc2)c1Br (centres unmarked) next?
Result: 90%
